Conditions: in tert-butanol, 323.15 K
quantity_measured: solubility (mole fraction)
// print number alone

Field request: solubility (mole fraction) | item: C[C@@H]1CC[C@@]2(OC1)O[C@H]1C[C@H]3[C@@H]4CC=C5C[C@@H](O)CC[C@]5(C)[C@H]4CC[C@]3(C)[C@H]1[C@@H]2C
0.00368

###

Conditions: in isooctanol, 314.65 K
quantity_measured: solubility (mole fraction)

Field request: solubility (mole fraction) | item: C[C@@H]1CC[C@@]2(OC1)O[C@H]1C[C@H]3[C@@H]4CC=C5C[C@@H](O)CC[C@]5(C)[C@H]4CC[C@]3(C)[C@H]1[C@@H]2C
0.0139

###

Settings: in ethanol, 325.65 K
quantity_measured: solubility (mole fraction)
// print number alone

Field request: solubility (mole fraction) | item: C[C@@H]1CC[C@@]2(OC1)O[C@H]1C[C@H]3[C@@H]4CC=C5C[C@@H](O)CC[C@]5(C)[C@H]4CC[C@]3(C)[C@H]1[C@@H]2C
0.00306

###

Details: in n-pentanol, 299.65 K
quantity_measured: solubility (mole fraction)
// print number alone

Field request: solubility (mole fraction) | item: C[C@@H]1CC[C@@]2(OC1)O[C@H]1C[C@H]3[C@@H]4CC=C5C[C@@H](O)CC[C@]5(C)[C@H]4CC[C@]3(C)[C@H]1[C@@H]2C
0.00566

###

Details: in n-propanol, 318.15 K
quantity_measured: solubility (mole fraction)
// print number alone

Field request: solubility (mole fraction) | item: C[C@@H]1CC[C@@]2(OC1)O[C@H]1C[C@H]3[C@@H]4CC=C5C[C@@H](O)CC[C@]5(C)[C@H]4CC[C@]3(C)[C@H]1[C@@H]2C
0.00473

###

Conditions: in tert-butanol, 306.65 K
quantity_measured: solubility (mole fraction)

Field request: solubility (mole fraction) | item: C[C@@H]1CC[C@@]2(OC1)O[C@H]1C[C@H]3[C@@H]4CC=C5C[C@@H](O)CC[C@]5(C)[C@H]4CC[C@]3(C)[C@H]1[C@@H]2C
0.00134

###

Conditions: in n-butanol, 314.25 K
quantity_measured: solubility (mole fraction)
// print number alone

Field request: solubility (mole fraction) | item: C[C@@H]1CC[C@@]2(OC1)O[C@H]1C[C@H]3[C@@H]4CC=C5C[C@@H](O)CC[C@]5(C)[C@H]4CC[C@]3(C)[C@H]1[C@@H]2C
0.00805

###

Conditions: in ethanol, 324.05 K
quantity_measured: solubility (mole fraction)
// print number alone

Field request: solubility (mole fraction) | item: C[C@@H]1CC[C@@]2(OC1)O[C@H]1C[C@H]3[C@@H]4CC=C5C[C@@H](O)CC[C@]5(C)[C@H]4CC[C@]3(C)[C@H]1[C@@H]2C
0.0029

###

Conditions: in isobutanol, 316.15 K
quantity_measured: solubility (mole fraction)
// print number alone

Field request: solubility (mole fraction) | item: C[C@@H]1CC[C@@]2(OC1)O[C@H]1C[C@H]3[C@@H]4CC=C5C[C@@H](O)CC[C@]5(C)[C@H]4CC[C@]3(C)[C@H]1[C@@H]2C
0.00582

###

Settings: in tert-butanol, 317.75 K
quantity_measured: solubility (mole fraction)
// print number alone

Field request: solubility (mole fraction) | item: C[C@@H]1CC[C@@]2(OC1)O[C@H]1C[C@H]3[C@@H]4CC=C5C[C@@H](O)CC[C@]5(C)[C@H]4CC[C@]3(C)[C@H]1[C@@H]2C
0.00307
